assay-overview: A qHTS for Small Molecule Inhibitors of Shiga Toxin; note: 0% is about no effect
experimental-parameters: Vero cells, Shiga toxin protein synthesis inhibition reporter; at 38.7 µM, hits give high values
Among all 290,000 compounds or so, about 27,000 (9.3%) were called active. For the sample, actives were picked, then their nearest neighbours and some compounds at random.
The following molecules are shown together with reported inhibition values.

# molecule, inhibition / %
records = [
    ("COc1ccccc1OCC(=O)OCn1c(SC)nnc(C)c1=O", 5.34),
    ("COc1ccc(CCNC(=O)CSc2nnc(CNC(=O)c3cccs3)o2)cc1OC", -18.8),
    ("CC(C)(C)c1ccc(C(=O)NNC(=O)Cc2ccccc2)cc1", 76.6),
    ("CCCc1cc(-c2n[nH]c(=S)n2CC)c2ccccc2n1", -6.2),
    ("CC1(C)C2CCC1(CS(=O)(=O)NCCc1c[nH]c3ccccc13)C(=O)C2 (centres undefined)", 23.7),
    ("CCCc1cc(=O)oc2c(C)c(OCC(=O)NCc3ccccn3)ccc12", -5.37),
    ("CC(=O)Nc1ccc(N2C(=O)CC(Sc3nccc(C)n3)C2=O)cc1 (centres undefined)", -3.46),
    ("COc1ccccc1NC(=O)C(C)OC(=O)CC1CCCC1 (centres undefined)", -16.1),
    ("Cc1cc(-c2n[nH]c(=S)n2-c2ccc(C)c(C)c2)no1", 6.5),
    ("CCCc1nc2scc(-c3ccc(C)cc3)c2c(=O)n1N", 44.2),
    ("O=C(CN1CCN(c2ccccn2)CC1)NC1CCCCC1", -9.42),
    ("CCn1c(SCCC(C)C)nnc1-c1c[nH]c2ccccc12", -3.59),
    ("N/C(=N\\OC(=O)CC1CCCCC1)c1ccccc1", 107),
    ("CCn1c(=O)n(CC)c2cc(N3CCCC3)c(NC(=O)c3ccccc3Br)cc21", -6.78),
]
